Each recorded value in this set is attributed to paper PMC5118696.

Biological target: PfDHODH (dihydroorotate dehydrogenase) (Plasmodium falciparum, UniProt Q08210)
Construct: amino acids 169–569
Sequence (Q08210 169-569): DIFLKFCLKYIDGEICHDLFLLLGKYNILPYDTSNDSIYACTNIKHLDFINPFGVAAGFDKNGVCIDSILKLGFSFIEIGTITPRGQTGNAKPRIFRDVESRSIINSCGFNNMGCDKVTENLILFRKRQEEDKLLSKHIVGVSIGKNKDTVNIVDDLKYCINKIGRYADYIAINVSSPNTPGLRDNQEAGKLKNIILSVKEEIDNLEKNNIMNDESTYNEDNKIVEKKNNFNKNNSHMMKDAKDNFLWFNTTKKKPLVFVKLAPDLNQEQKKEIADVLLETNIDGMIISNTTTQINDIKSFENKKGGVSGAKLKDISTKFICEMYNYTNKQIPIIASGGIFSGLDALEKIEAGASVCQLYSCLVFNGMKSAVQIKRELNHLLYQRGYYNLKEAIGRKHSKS
Test: DCIP reduction enzyme assay with recombinant PfDHODH; IC50 extrapolated, inhibition did not reach […]
Measurement kind: IC50

molecule_smiles=Cc1ccc(CSCc2ccc(C(=O)NC3CC3)o2)cc1 measured="~158 µM"
